Target sequence: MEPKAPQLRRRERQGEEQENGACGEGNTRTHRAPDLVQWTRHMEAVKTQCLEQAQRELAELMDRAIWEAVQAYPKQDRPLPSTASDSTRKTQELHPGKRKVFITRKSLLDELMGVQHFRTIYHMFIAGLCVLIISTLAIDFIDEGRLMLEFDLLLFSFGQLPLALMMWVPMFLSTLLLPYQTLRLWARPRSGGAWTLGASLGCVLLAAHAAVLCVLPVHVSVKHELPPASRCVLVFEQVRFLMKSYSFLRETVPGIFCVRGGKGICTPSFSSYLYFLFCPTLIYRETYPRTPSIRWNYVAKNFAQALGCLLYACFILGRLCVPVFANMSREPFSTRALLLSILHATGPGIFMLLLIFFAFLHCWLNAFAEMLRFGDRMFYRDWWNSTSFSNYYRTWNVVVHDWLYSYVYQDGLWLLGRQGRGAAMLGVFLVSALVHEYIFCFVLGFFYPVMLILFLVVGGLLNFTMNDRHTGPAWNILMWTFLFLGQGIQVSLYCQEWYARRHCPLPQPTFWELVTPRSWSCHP
# IC50 per record follows
measure: IC50

> print(dat)
                                   compound       result
1  CCCCCOc1cc2c(cc1OC)CC(CCCC)CSC2C(=O)Nc1c(SC)cc(C)nc1SC (stereo not drawn)       < 2 µM
2  CCCCCC1C=CC(CCCCC)[S+]([O-])C1C(=O)Nc1c(SC)cc(C)nc1SC (stereo not drawn)       < 2 µM
3  CCCCCCC1=C(CCCCCC)CC(C(=O)Nc2c(C)cccc2C)SC1 (stereo not drawn)       < 2 µM
4  CCCCCC1C=CC(CCCCC)C(C(=O)Nc2c(C(C)C)cccc2C(C)C)S1 (stereo not drawn)       < 2 µM
5  CCCCCC1=C(CCCCC)CC(C(=O)Nc2ccc(F)cc2F)SC1 (stereo not drawn)  11 to 50 µM
6  CCCCC1=C(CCCC)CC(C(=O)Nc2c(C(C)C)cccc2C(C)C)SC1 (stereo not drawn)       < 2 µM
7  CCCCCC1=C(CCCCC)CC(C(=O)Nc2ccc(SC)nc2)SC1 (stereo not drawn)  11 to 50 µM
8  CCCCCC1C=CC(CCCCC)C(C(=O)Nc2c(C)cccc2C)S1 (stereo not drawn)       < 2 µM
9  CC1=C(C)CC(C(=O)Nc2c(C(C)C)cccc2C(C)C)OC1 (stereo not drawn)  11 to 50 µM

Where these numbers come from: patent US5491152A
